# test.target: Rv3273-β (Mycobacterium tuberculosis, UniProt P96878)
# Sequence (P96878 540-764 limits assumed): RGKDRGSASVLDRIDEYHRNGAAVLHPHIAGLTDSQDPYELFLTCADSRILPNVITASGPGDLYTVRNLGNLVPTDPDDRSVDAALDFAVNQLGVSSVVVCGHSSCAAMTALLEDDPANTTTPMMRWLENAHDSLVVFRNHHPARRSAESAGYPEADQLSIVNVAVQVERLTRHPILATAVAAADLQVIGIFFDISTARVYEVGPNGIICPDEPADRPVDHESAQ
# protocol.summary: biochemical
# run.conditions: read-out: Rv3273-β; inhibitor
readout.type: Ki

q: Given Cc1ccccc1[Se]CC(=O)Nc1ccc(S(N)(=O)=O)cc1 [7c] , respond with its Ki.
a: > 10 µM

###

# test.target: Rv3273-β (Mycobacterium tuberculosis, UniProt P96878)
# protocol.summary: biochemical
readout.type: Ki

q: Indicate the recorded Ki value for this compound: NS(=O)(=O)c1ccc(CCNC(=O)C[Se]c2ccccc2)cc1
a: 1.5 µM

q: State, in one line, measured Ki of C=C(C)[C@H]1CCC(C)(O)C([Se]CC(=O)NCCc2ccc(S(N)(=O)=O)cc2)C1 (stereo partly shown)
a: > 10 µM

Continuing:
q: Identify measured Ki corresponding to NS(=O)(=O)c1ccc(C[Se]c2ccc(NC(=O)CSc3ccc(Br)cc3)cc2)cc1
a: > 10 µM

q: Identify measured Ki corresponding to Cc1ccc([Se]CC(=O)Nc2ccc(S(N)(=O)=O)cc2)cc1
a: 0.283 µM

q: Quote Ki reported for COc1ccc([Se]CC(=O)NCCc2ccc(S(N)(=O)=O)cc2)cc1 please.
a: > 10 µM

q: Specify reported Ki for the compound shown: Cc1ccc(S(=O)(=O)N[C@H](C[Se]CC(=O)NCCc2ccc(S(N)(=O)=O)cc2)C(C)C)cc1
a: > 10 µM

q: Tell us which Ki value is on record for COc1ccc([Se]CC(=O)Nc2ccc([Se]Cc3ccc(S(N)(=O)=O)cc3)cc2)cc1
a: > 10 µM
